Let's look at some compounds and their measured log10 of IC50.
# measured.target: Human Polymorphonuclear Leukocyte Elastase (Homo sapiens, UniProt P08246)
# Construct: Crude extract of human polymorphonuclear leukocytes (PMN) containing elastase activity; endogenous in cells; host or cells: human polymorphonuclear leukocytes (crude extract)
# Sequence (P08246 30-247 limits assumed): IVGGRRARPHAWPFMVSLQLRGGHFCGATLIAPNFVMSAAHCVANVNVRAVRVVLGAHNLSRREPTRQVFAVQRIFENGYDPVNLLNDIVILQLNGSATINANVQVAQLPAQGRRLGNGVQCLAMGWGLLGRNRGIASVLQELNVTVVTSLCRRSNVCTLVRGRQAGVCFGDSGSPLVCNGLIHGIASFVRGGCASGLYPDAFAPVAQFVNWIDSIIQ
# experimental.details: Inhibition of human polymorphonuclear leukocyte (PMN) elastase via hydrolysis of N-t-Boc-alanyl-alanyl-prolyl-alanine-p-nitroanilide (two point or "zero time" assay)
# Assay type: biochemical
# test.settings: 50% inhibition of the enzyme activity 2 minutes after zero time; crude human PMN extract; 0.2 mM Boc-AAPAN, pH 7.5, 410 nm; read-out: ED50 (the source's name) (converted)
In our notation, the value equals log10 of IC50 in µM.

[[record]]
compound = "C=C(CCC(C)[C@H]1CCC2C3=C([C@@H](O)[C@H](OC(C)=O)C21C)C1(C)C[C@@H](O)[C@H](OS(=O)(=O)O)C(C)(C)[C@@H]1CC3)C(C)C (some centres unmarked)"
measured_target = "Human Polymorphonuclear Leukocyte Elastase (Homo sapiens, UniProt P08246)"
numeric_value = 0.40

[[record]]
compound = "C=C(CCC(C)[C@H]1CC=C2C3=C([C@@H](OC(C)=O)[C@H](OC(C)=O)C21C)C1(C)C[C@@H](OC(C)=O)[C@H](OS(=O)(=O)O)C(C)(C)[C@@H]1CC3)C(C)C (some centres unmarked)"
measured_target = "Human Polymorphonuclear Leukocyte Elastase (Homo sapiens, UniProt P08246)"
numeric_value = 2.42

[[record]]
compound = "C=C(CCC(C)[C@H]1CC=C2C3=C([C@@H](O)[C@H](O)C21C)C1(C)C[C@@H](O)[C@H](OS(=O)(=O)O)C(C)(C)[C@@H]1CC3)C(C)C (some centres unmarked)"
measured_target = "Human Polymorphonuclear Leukocyte Elastase (Homo sapiens, UniProt P08246)"
numeric_value = 0.54

[[record]]
compound = "C=C(CCC(C)[C@H]1CC=C2C3=C([C@@H](O)[C@H](OC(C)=O)C21C)C1(C)C[C@@H](O)[C@H](O)C(C)(C)[C@@H]1CC3)C(C)C (some centres unmarked)"
measured_target = "Human Polymorphonuclear Leukocyte Elastase (Homo sapiens, UniProt P08246)"
numeric_value = 0.24


Next compound, log10 of IC50 to be filled in.
What does the record list as log10 of IC50 for C=C(CCC(C)[C@H]1CC=C2C3=C([C@@H](O)[C@H](OC(C)=O)C21C)C1(C)C[C@@H](O)[C@H](OS(=O)(=O)O)C(C)(C)[C@@H]1CC3)C(C)C (some centres unmarked) ? 0.37
